Biological target: fusion glycoprotein of the RSV used in the neutralization assay of Example 1 (respiratory syncytial virus (strain not stated))
Assay: cell-based or functional assay
readout-type: RSV Neutralization - IC50 (ng/mL)
Quick reminder: number only, in ng/mL, skip the unit.

Worked examples follow.
MPK152 (antibody, V domains shown) VH: EVQLVESGGGLVKPGGSLRLSCAASGLTISGYYMIWIRQAPGKGLEWISYISGSSSYTNYADSVKGRFTISRDNGQNTLFLQMDSLRVEDTAVYFCATEETPSPGPFGLWGQGTLVTVSS VL: QSVVTQPPSVSGAPGQRVTISCTGTSSNIGAGYDVHWYQQFPGTSPKLLIFRNTNRPSGVPDRFSGSTSGSSASLAITGLQTEDEADYYCQSYDRSLDGWVFGGGTELTVL: 30.8
MPK195 (antibody, V domains shown) VH: EVQLVQSGAAVKKPGESLKISCRGSGYSFINYWIGWVRQMPGKGLEWMGVIYPFDSDTQYSPSFQGHVTISADKSINTAYLQWDSLKAADTAIYYCARFTFGIALSTADVYGEGQAFDIWGPGTMVTVSS VL: EIVLTQSPATLSVSPGERATLSCRASQSVAGKIAWYQQRPGQAPRLLIYGASTRATGVPARFSGSGSETEFTLTISSLQSEDFAVYYCQQYSNWPQAFGPGTRLDMK: 1.1
MPK171-v1 (antibody, V domains shown) VH: QVQLVQSGAEVKKPGESLKISCKGSGYSFINYWIGWVRQMPGKGLEWMGIIYPFDSDTKYSPSFQGHVTISADKSINTAYVQWSSLKASDTAMYYCARFTFGIAVVTDDVSGEGHAFDIWGQGTMVTVSS VL: QSVLTQPPSVSGAPGQRVTISCAGSSSNIGAGFDVHWYQQVPGTAPKLLIYNTDNRASGVPDRFSASKSGTSASLAITGLQAEDEADYYCQSYDNSLSGVFGGGTKLTVL: 4.3
MPK176 (antibody, V domains shown) VH: QVQLVQSGAEVKKPGASVRVSCKASGYTLTAYGISWVRQAPGQGLEWMGWISPKHGNTHYAQRFQGRVTMTTDTSTSTAYMELRSLRPDDTAVYFCAREGVDIMAVPWYFDYWGQGTLVAVSS VL: SYELTQPPSVSVAPGQTARISCGGNNIGSKSVHWYQQKPGQAPVVVVYDDSDRPSGIPERFSGSNSGNTATLTISGVEAGDEADYFCQVWDSATDHWVFGGGTKLTVL: 4.2

Turning now to a further record.
What measured RSV Neutralization - IC50 goes with MPK142-v1 (antibody, V domains shown) VH: EVQLVESGGGLVEPGGSLRLSCAASGFTISGYGMSWVRQAPGKGLEWVSSISASSSYIYYGDAMKGRITISRDNGWNSMYLQMNSLRTEDTAVYYCATAPIEPPYFDLWGRGTLVTVSS VL: QSVLTQPPSVSGAPGQRVTISCTGSSSNIGAGYDVHWYQQFPGKAPKVLIYGNNNRPSGVPDRFAASNSGASASLAITGLQAEDEAAYFCQSYDRRLSGPVFGGGTKLTVL ? 21.1

Values from patent US20260028391A1
